Measured values drawn from patent US10085998B2 for this set.

assay: Moisture sorption analysis; format: physicochemical; conditions: after moisture sorption experiment
READOUT_TYPE: XRPD pattern following the moisture sorption/desorption analysis

INSERT INTO measurements (compound, measured) VALUES
  ('C1COCCO1.CC1=Nc2ccc(Cl)cc2S(=O)(=O)[N-]1.CC1=Nc2ccc(Cl)cc2S(=O)(=O)[N-]1.[K+].[K+] [Form F]', 'consistent with Form D'),
  ('CC1=Nc2ccc(Cl)cc2S(=O)(=O)[N-]1.CC1=Nc2ccc(Cl)cc2S(=O)(=O)[N-]1.O.[K+].[K+] [Form D]', 'consistent with Form D');

---

assay: Moisture sorption analysis; format: physicochemical; details: 25° C., relative humidity scan
Where a name gives a salt, the structure may show the parent alone.
READOUT_TYPE: Moisture sorption: hygroscopicity

INSERT INTO results (compound, readout_type, measured) VALUES
  ('C1COCCO1.CC1=Nc2ccc(Cl)cc2S(=O)(=O)[N-]1.CC1=Nc2ccc(Cl)cc2S(=O)(=O)[N-]1.[K+].[K+] [Form F]', 'Moisture sorption: hygroscopicity', 'hygroscopic'),
  ('CC1=Nc2ccc(Cl)cc2S(=O)(=O)[N-]1.[Na+] [sodium salt of diazoxide]', 'Moisture sorption: hygroscopicity', 'hygroscopic'),
  ('CC1=NS(=O)(=O)c2cc(Cl)ccc2N1 [potassium salt of diazoxide]', 'Moisture sorption: hygroscopicity', 'hygroscopic'),
  ('CC1=Nc2ccc(Cl)cc2S(=O)(=O)[N-]1.C[N+](C)(C)CCO [choline salt of diazoxide]', 'Moisture sorption: hygroscopicity', 'hygroscopic');
